AC50 by entry:
# target: Full length WRN protein (aa 2-1432) (Homo sapiens (Human))
# Sequence (Q14191 2-1432): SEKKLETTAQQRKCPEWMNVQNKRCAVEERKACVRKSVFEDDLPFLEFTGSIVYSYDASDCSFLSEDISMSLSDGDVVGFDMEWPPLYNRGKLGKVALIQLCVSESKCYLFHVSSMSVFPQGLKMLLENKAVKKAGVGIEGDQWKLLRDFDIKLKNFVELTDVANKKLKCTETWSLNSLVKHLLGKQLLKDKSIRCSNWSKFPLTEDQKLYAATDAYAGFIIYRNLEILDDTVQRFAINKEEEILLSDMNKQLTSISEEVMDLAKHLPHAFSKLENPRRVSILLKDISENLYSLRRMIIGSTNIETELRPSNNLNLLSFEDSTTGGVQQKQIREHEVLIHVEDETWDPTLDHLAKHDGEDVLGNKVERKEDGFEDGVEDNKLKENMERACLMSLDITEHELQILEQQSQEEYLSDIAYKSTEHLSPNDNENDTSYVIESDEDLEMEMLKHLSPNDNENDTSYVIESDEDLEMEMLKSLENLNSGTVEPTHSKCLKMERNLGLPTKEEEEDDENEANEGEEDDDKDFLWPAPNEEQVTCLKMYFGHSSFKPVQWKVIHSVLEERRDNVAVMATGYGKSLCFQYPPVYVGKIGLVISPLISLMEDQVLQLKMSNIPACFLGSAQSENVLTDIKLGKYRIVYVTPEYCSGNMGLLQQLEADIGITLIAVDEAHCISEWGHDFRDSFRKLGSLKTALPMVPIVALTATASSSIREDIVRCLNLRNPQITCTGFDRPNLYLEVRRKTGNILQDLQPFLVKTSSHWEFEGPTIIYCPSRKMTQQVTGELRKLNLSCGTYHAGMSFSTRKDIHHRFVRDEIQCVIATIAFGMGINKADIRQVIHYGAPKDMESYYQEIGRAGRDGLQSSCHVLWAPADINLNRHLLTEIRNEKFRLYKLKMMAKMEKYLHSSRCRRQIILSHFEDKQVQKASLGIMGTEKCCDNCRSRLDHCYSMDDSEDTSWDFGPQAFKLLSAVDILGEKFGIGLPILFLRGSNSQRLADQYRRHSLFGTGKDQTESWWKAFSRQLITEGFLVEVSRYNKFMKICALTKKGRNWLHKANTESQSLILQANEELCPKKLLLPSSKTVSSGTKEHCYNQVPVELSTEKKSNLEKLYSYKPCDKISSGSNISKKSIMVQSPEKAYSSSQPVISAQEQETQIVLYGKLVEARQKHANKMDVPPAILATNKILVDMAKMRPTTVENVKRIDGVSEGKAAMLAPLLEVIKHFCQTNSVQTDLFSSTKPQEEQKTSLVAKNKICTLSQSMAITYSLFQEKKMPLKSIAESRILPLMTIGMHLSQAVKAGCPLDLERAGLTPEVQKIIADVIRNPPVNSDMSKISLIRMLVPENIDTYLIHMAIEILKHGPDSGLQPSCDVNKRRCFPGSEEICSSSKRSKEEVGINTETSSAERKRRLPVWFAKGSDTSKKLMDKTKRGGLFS
# experiment_summary: WRN ATPase ADP-Glo biochemical assay, Assay Format B (100 μM ATP)
# condition_parameters: 0.25 nM WRN, 100 nM C6.18 ssDNA, 60 min preincubation, read-out: ATPase ADPGlo AC50 (uM)- Assay Format B

molecule | target | AC50
C=CC(=O)N1CCc2nn(-c3ccc(C4CC4)cc3)c3c2C(C1)N(C(=O)c1ccc(Br)nc1N)CC3 (stereo not drawn) | Full length WRN protein (aa 2-1432) (Homo sapiens (Human)) | 0.005 to 0.015 µM
C=CC(=O)N1CCc2nn(-c3ccc(C4CCC4)cc3O)c3c2C(C1)N(C(=O)c1ccc(Br)c2nc(CCO)[nH]c12)CC3 (stereo not drawn) | Full length WRN protein (aa 2-1432) (Homo sapiens (Human)) | 0.005 to 0.015 µM
C=CC(=O)N1CC(O)c2nn(-c3ccc(C4CCC4)cc3)c3c2C(C1)N(C(=O)c1ccc(Br)c2[nH]c(C(F)F)nc12)CC3 (stereo not drawn) | Full length WRN protein (aa 2-1432) (Homo sapiens (Human)) | 0.0015 to 0.005 µM
C=CC(=O)N1CCc2nn(-c3ccc(C4CCC4)cc3)c3c2C(C1)N(C(=O)c1ccc(C(F)(F)F)c2[nH]nc(N)c12)CC3 (stereo not drawn) | Full length WRN protein (aa 2-1432) (Homo sapiens (Human)) | 0.005 to 0.015 µM
C=CC(=O)N1CC(F)Oc2nn(-c3ccc(C(C)C)cc3)c3c2C(C1)N(C(=O)c1ccc(Br)c2[nH]cnc12)CC3 (stereo not drawn) [Compound 55] | Full length WRN protein (aa 2-1432) (Homo sapiens (Human)) | 0.015 to 0.055 µM
C=CC(=O)N1CCc2nn(-c3ccc(CC(F)(F)F)cc3O)c3c2C(C1)N(C(=O)c1ccc(Br)c2[nH]cnc12)CC3 (stereo not drawn) | Full length WRN protein (aa 2-1432) (Homo sapiens (Human)) | 0.005 to 0.015 µM
C=CC(=O)N1CCc2nn(-c3ccc(C4CC4)cc3)c3c2C(C1)N(C(=O)c1ccc(C(F)(F)F)nc1N)CC3 (stereo not drawn) | Full length WRN protein (aa 2-1432) (Homo sapiens (Human)) | 0.005 to 0.015 µM
C=CC(=O)N1CCc2nn(-c3ccc(C4CC4)cc3)c3c2C(C1)N(C(=O)c1ccc(Br)nc1C)CC3 (stereo not drawn) | Full length WRN protein (aa 2-1432) (Homo sapiens (Human)) | > 0.055 µM
C=CC(=O)N1CCc2nn(-c3ccc(C4CCC4)cc3)c3c2C(C1)N(C(=O)c1cnc2c(C(F)(F)F)nn(C)c2c1)CC3 (stereo not drawn) | Full length WRN protein (aa 2-1432) (Homo sapiens (Human)) | 0.015 to 0.055 µM
C=CC(=O)N1CCc2nn(-c3ccc(C(C)C)c(F)c3N)c3c2C(C1)N(C(=O)c1cnc(C(F)(F)F)c(O)c1)CC3 (stereo not drawn) | Full length WRN protein (aa 2-1432) (Homo sapiens (Human)) | 0.015 to 0.055 µM
C=CC(=O)N1CCc2nn(-c3ccc(C4CCC4)cc3O)c3c2C(C1)N(C(=O)c1cnc(C(F)(F)F)c(SC)c1)CC3 (stereo not drawn) | Full length WRN protein (aa 2-1432) (Homo sapiens (Human)) | 0.015 to 0.055 µM
C=CC(=O)N1CCc2nn(-c3ccc(C4CCC4)cc3O)c3c2C(C1)N(C(=O)c1ccc(C(C)(F)F)nc1N)CC3 (stereo not drawn) | Full length WRN protein (aa 2-1432) (Homo sapiens (Human)) | 0.005 to 0.015 µM
C=CC(=O)N1CCc2nn(-c3ccc(C4CC4)cc3)c3c2C(C1)N(C(=O)c1cnc(C(F)(F)F)cc1N)CC3 (stereo not drawn) | Full length WRN protein (aa 2-1432) (Homo sapiens (Human)) | 0.005 to 0.015 µM
C=CC(=O)N1CC(OC2CC(C#N)C2)c2nn(-c3ccc(C4CC4)cc3O)c3c2C(C1)N(C(=O)c1cnc(C(F)(F)F)cc1N)CC3 (stereo not drawn) | Full length WRN protein (aa 2-1432) (Homo sapiens (Human)) | 0.0015 to 0.005 µM
C=CC(=O)N1CC(OC)c2nn(-c3ccc(C4CCC4)cc3)c3c2C(C1)N(C(=O)c1ccc(Br)c2[nH]cnc12)CC3 (stereo not drawn) | Full length WRN protein (aa 2-1432) (Homo sapiens (Human)) | 0.0015 to 0.005 µM
C=CC(=O)N1CCc2nn(-c3ccc(C4CC4)cc3O)c3c2C(C1)N(C(=O)c1cnc(OC(F)F)cc1N)CC3 (stereo not drawn) | Full length WRN protein (aa 2-1432) (Homo sapiens (Human)) | 0.005 to 0.015 µM
C=CC(=O)N1CCOc2nn(-c3ccc(C(C)C)cc3O)c3c2C(C1)N(C(=O)c1ccc(Br)c2[nH]cnc12)CC3 (stereo not drawn) | Full length WRN protein (aa 2-1432) (Homo sapiens (Human)) | 0.005 to 0.015 µM
C=CC(=O)N1CCc2nn(-c3ccc(C(C)C)cc3O)c3c2C(C1)N(C(=O)c1ccc(Br)c2[nH]c(C(F)F)nc12)CC3 (stereo not drawn) | Full length WRN protein (aa 2-1432) (Homo sapiens (Human)) | 0.0015 to 0.005 µM
C=CC(=O)N1CCc2nn(-c3ccc(C4CC4)cc3)c3c2C(C1)N(C(=O)c1ccc(Cl)nc1N)CC3 (stereo not drawn) | Full length WRN protein (aa 2-1432) (Homo sapiens (Human)) | 0.015 to 0.055 µM
C=CC(=O)N1CC(F)c2nn(-c3ccc(C4CCC4)cc3)c3c2C(C1)N(C(=O)c1ccc(Br)c2[nH]cnc12)CC3 (stereo not drawn) | Full length WRN protein (aa 2-1432) (Homo sapiens (Human)) | 0.0015 to 0.005 µM
C=CC(=O)N1CC2c3c(nn(-c4ccc(C5CC5)cc4)c3CCN2C(=O)c2ccc(C(F)(F)F)cc2)C(n2ccccc2=O)C1 (stereo not drawn) | Full length WRN protein (aa 2-1432) (Homo sapiens (Human)) | 0.015 to 0.055 µM
